Property: inhibition at 10 µM; scope: individual molecules
assay_target: BTK (Homo sapiens, UniProt Q06187)
Sequence (Q06187 402-655 limits assumed): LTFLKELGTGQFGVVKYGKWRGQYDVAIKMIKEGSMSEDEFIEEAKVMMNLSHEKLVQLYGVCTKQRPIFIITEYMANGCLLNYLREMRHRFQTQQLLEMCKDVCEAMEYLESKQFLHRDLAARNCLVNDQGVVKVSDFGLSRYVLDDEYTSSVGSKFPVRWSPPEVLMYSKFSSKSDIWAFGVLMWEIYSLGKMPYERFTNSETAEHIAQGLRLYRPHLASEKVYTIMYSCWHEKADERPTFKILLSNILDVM
test_summary: biochemical
experimental_parameters: read-out: BTK inhibition (%), 0.75 uM BTK, […] probe 3l, 15 min preincubation
Could you give me the number in %? Just the number is fine.

In the examples that follow, each entry is paired with its recorded inhibition at 10 µM.
- CCO[C@@H]1OC(=O)C[C@@H]1NC(=O)[C@@H]1CCCN1C(=O)[C@@H](NC(=O)c1ccc(N)c(Cl)c1)C(C)(C)C: -8.6
- C[C@@H]1O[C@@H](Oc2c(-c3cc(O)c(O)c(O)c3)oc3cc(O)cc(O)c3c2=O)[C@H](O)[C@H](O)[C@H]1O: -2.3

Consider the additional molecule presented here.
Hello, I am looking for reported inhibition at 10 µM with BTK (Homo sapiens, UniProt Q06187) for Nc1nc(-c2ccco2)c2cnn(Cc3ccccc3F)c2n1 . Could you help?
5.4

---

Property: inhibition at 10 µM; scope: individual molecules
assay_target: BTK (Homo sapiens, UniProt Q06187)
test_summary: biochemical
experimental_parameters: read-out: BTK inhibition (%), 0.75 uM BTK, […] probe 3l, 15 min preincubation
Could you give me the number in %? Just the number is fine.

In the examples that follow, each entry is paired with its recorded inhibition at 10 µM.
* CC(C)(CO)[C@@H](O)C(=O)NCCC(=O)NCCSSCCNC(=O)CCNC(=O)[C@H](O)C(C)(C)CO | -28.9
* CN=C(NC#N)NCCSCc1nc[nH]c1C | -12.4
* CCN1C(=O)CNc2ncc(-c3ccc(-c4ncn[nH]4)nc3C)nc21 | 11.7
* COc1cc(/C=C/C(=O)CC(=O)/C=C/c2ccc(O)cc2)ccc1O | 110

Consider the molecule shown here: CC(=O)O[C@]1(C)CC[C@@]23C[C@@H]1C(C)(C)[C@@H]2CC[C@H]3C What is its recorded inhibition at 10 µM?
10.9

---

assay_target: BTK (Homo sapiens)
test_summary: biochemical
experimental_parameters: read-out: BTK inhibition (%)
observation_type: inhibition at 10 µM (%)
Could you give me the number in %? Just the number is fine.

- C[C@](O)(COc1ccc(C#N)cc1)C(=O)Nc1ccc(C#N)c(C(F)(F)F)c1: -0.8
- CN1[C@@H]2CC[C@H]1CC(O)C2 (some centres unmarked): -7.8
- O=[N+]([O-])c1ncc[nH]1: 3.1
- C[C@H]1CC(=O)C[C@@H]2CC[C@H]3[C@@H]4CC[C@H](O)[C@@]4(C)CC[C@@H]3[C@]21C: -20.2

Consider the additional compound presented here.
Consider the compound shown here: Cn1c(COP(=O)(NCCBr)NCCBr)cnc1[N+](=O)[O-] What is its recorded inhibition at 10 µM?
-4.7

---

assay_target: BTK (Homo sapiens)
test_summary: biochemical
experimental_parameters: read-out: BTK inhibition (%), 0.75 uM BTK, […] probe 3l, 15 min preincubation
observation_type: inhibition at 10 µM (%)
Could you give me the number in %? Just the number is fine.

In the examples that follow, each entry is paired with its recorded inhibition at 10 µM.
* CC[C@@H]1CN2CC[C@@]3(C(=O)Nc4ccccc43)[C@@H]2C[C@@H]1/C(=C\OC)C(=O)OC | -15.4
* CN(C)Cc1cccc(N=C(c2ccccc2)c2c(O)[nH]c3cc(C(N)=O)ccc23)c1 | 5.5
* CCc1cncnc1N1CCN(Cc2nc3ccc(C(F)(F)F)cc3[nH]2)CC1 | -22.8

Consider the compound shown here: C[C@@H]1CC[C@]2(C(=O)O[C@@H]3O[C@H](CO)[C@@H](O)[C@H](O)[C@H]3O)CC[C@]3(C)C(=CC[C@@H]4[C@@]5(C)CC[C@H](O[C@@H]6OC[C@H](O)[C@H](O)[C@H]6O)C(C)(C)[C@@H]5CC[C@]43C)[C@@H]2[C@]1(C)O What is its recorded inhibition at 10 µM?
7.7

Consider the compound shown here: O=C(O)COc1nn(Cc2ccccc2)c2ccccc12 What is its recorded inhibition at 10 µM?
-3.1

Consider the compound shown here: CC(=O)CC/C=C(\C)CC/C=C(\C)CC/C=C(\C)CCC=C(C)C What is its recorded inhibition at 10 µM?
2.3

Consider the compound shown here: CC(C)(CO)[C@@H](O)C(=O)NCCC(=O)O What is its recorded inhibition at 10 µM?
7

Consider the compound shown here: COC(=O)C1=C(C)NC(C)=C(C(=O)O[C@@H]2CCCN(Cc3ccccc3)C2)[C@@H]1c1cccc([N+](=O)[O-])c1 What is its recorded inhibition at 10 µM?
80.9

Consider the compound shown here: O=C1c2c(O)cc(O)cc2O[C@H](c2ccc(O)c(O)c2)[C@H]1O What is its recorded inhibition at 10 µM?
11

Consider the compound shown here: C[C@H](NC(=O)/C(C#N)=C/c1cccc(Br)n1)c1ccccc1 What is its recorded inhibition at 10 µM?
12.4

Consider the compound shown here: O=P(O)(O)OC1C(OP(=O)(O)O)C(OP(=O)(O)O)C(OP(=O)(O)O)C(OP(=O)(O)O)C1OP(=O)(O)O (stereo not drawn) What is its recorded inhibition at 10 µM?
21.3

Consider the compound shown here: CC(=O)O[C@H]1C(=O)[C@]2(C)[C@H](O)C[C@H]3OC[C@@]3(OC(C)=O)[C@H]2[C@H](OC(=O)c2ccccc2)[C@]2(O)C[C@H](OC(=O)[C@H](O)[C@@H](NC(=O)c3ccccc3)c3ccccc3)C(C)=C1C2(C)C What is its recorded inhibition at 10 µM?
16.2

Consider the compound shown here: CC1(C)C=Cc2cc(-c3coc4cc(O)ccc4c3=O)ccc2O1 What is its recorded inhibition at 10 µM?
28.6

Consider the compound shown here: CN1CC(=O)N=C1N What is its recorded inhibition at 10 µM?
-3.4

Consider the compound shown here: O=C1C=CC[C@@H]2[C@H]3CCCN4CCC[C@@H](CN12)[C@@H]34 What is its recorded inhibition at 10 µM?
13.2

---

Property: inhibition at 10 µM; scope: individual molecules
assay_target: BTK (Homo sapiens)
test_summary: biochemical
experimental_parameters: read-out: BTK inhibition (%), 0.75 uM BTK, […] probe 3l, 15 min preincubation
Could you give me the number in %? Just the number is fine.

Consider the molecule shown here: NC(=O)CC[C@H](N)C(=O)O What is its recorded inhibition at 10 µM?
17.9

Consider the molecule shown here: Cc1nc2cccc(N)c2c(=O)n1C1CCC(=O)NC1=O (centres unmarked) What is its recorded inhibition at 10 µM?
2.3

---

assay_target: BTK (Homo sapiens, UniProt Q06187)
test_summary: biochemical
experimental_parameters: read-out: BTK inhibition (%), 0.75 uM BTK, […] probe 3l, 15 min preincubation
observation_type: inhibition at 10 µM (%)
Could you give me the number in %? Just the number is fine.

In the examples that follow, each entry is paired with its recorded inhibition at 10 µM.
* O=C(/C=C/c1ccc(O)cc1)c1ccc(O)cc1O | 17.1
* O=c1[nH]cnc2c1ncn2[C@@H]1O[C@H](CO)[C@@H](O)[C@H]1O | -3.1
* Cn1nnc(-c2ccc(-c3ccc(N4C[C@H](CO)OC4=O)cc3F)cn2)n1 | -12.4
* CN(C)Cc1ccc(-c2nc3cccc4c3n2CCNC4=O)cc1 | 4.8
* Cc1ccc(-n2[nH]c(C)c(N=Nc3cccc(-c4cccc(C(=O)O)c4)c3O)c2=O)cc1C | 80.2
* Cc1ccc(-c2cc(C(F)(F)F)nn2-c2ccc(S(N)(=O)=O)cc2)cc1 | 22.8

Consider the compound shown here: COCC1=C(C(=O)OC(C)OC(=O)OC(C)C)N2C(=O)[C@@H](NC(=O)/C(=N\OC)c3csc(N)n3)[C@H]2SC1 (some centres unmarked) What is its recorded inhibition at 10 µM?
-11.6

Consider the compound shown here: Nc1nc(=O)n([C@@H]2CS[C@H](CO)O2)cc1F What is its recorded inhibition at 10 µM?
-10.1

---

assay_target: BTK (Homo sapiens, UniProt Q06187)
test_summary: biochemical
experimental_parameters: read-out: BTK inhibition (%), 0.75 uM BTK, […] probe 3l, 15 min preincubation
# inhibition at 10 µM >= 10% gives label 1, anything below gives label 0

Solved cases (6 shown):
• Cn1nnc2c(C(N)=O)ncn2c1=O = label 0
• Oc1ccc(-c2nc(-c3ccc(F)cc3)c(-c3ccncc3)[nH]2)cc1 = label 1
• C[C@@H](N)C(=O)N[C@@H](CO)C(=O)N[C@H](C(=O)N[C@H](C(=O)N[C@H](C(=O)N[C@@H](CC(N)=O)C(=O)N[C@@H](Cc1ccc(O)cc1)C(=O)N[C@H](C(N)=O)[C@@H](C)O)[C@@H](C)O)[C@@H](C)O)[C@@H](C)O = label 1
• NC(=O)c1cnc(N[C@@H]2CCCC[C@@H]2N)nc1Nc1cccc(-n2nccn2)c1 = label 1
• C[C@H]1C[C@H]2[C@@H]3CCC4=CC(=O)C=C[C@]4(C)[C@H]3C(=O)C[C@]2(C)[C@@]1(O)C(=O)CO = label 1
• O=Cc1ccccc1O[C@@H]1O[C@H](CO)[C@@H](O)[C@H](O)[C@H]1O = label 0

Moving on to the next molecule.
Check this molecule for inhibition at 10 µM at or above 10%: O=C(Nc1cccc(Cl)c1)c1ccccn1
label 0
